- Measured Target: T1, cynomolgus BDCA2 (cynomolgus monkey, UniProt A0A2K5UWP4 1-212)
- T1 construct: whole, on cells; also called Cyno BDCA2; cynoBDCA2
- T1 sequence: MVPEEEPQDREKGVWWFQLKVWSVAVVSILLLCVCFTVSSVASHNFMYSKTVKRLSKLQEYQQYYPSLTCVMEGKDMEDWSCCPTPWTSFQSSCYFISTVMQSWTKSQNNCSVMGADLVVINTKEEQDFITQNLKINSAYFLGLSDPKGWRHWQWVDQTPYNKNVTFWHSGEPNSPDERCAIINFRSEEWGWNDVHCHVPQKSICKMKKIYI
- Experiment: FACS on 293F-cynoBDCA2 cells; EC50 table under the plot, unit from the x axis (nM) [continued) d.]
Property Measured: EC50 (nM)
Express your answer in nM, writing the number without its unit.

mAb026 (antibody, V domains shown, Mouse hybridoma antibody) VH: DVQLQESGPGLVKPSQSLSLTCSVTGYSITSAYYWNWIRQFPGHKLEWMGYISYDGSNNYNPSLKNRISITRDTSKNQFFLKLNSVTTEDTATYHCARGVDYPNAIDWWGQGTSLTVSS VL: DIVLTQSPTSLTVSLGQRATISCRASESVSIHGTHLMHWYQQKPGQPPKLLIYVASYLESGVPARFSGSGSETDFSLNIHPVEEEDAATYFCQQSFEDPWTFGGGTKLEIK
2.49
mAb032 (antibody, V domains shown, Mouse hybridoma antibody) VH: DVQLQESGPGLVKPSQSLSLTCSVTGYSITSGYYWNWIRQFPGNKLECMGYISYDGSNYYNPSLKNRISITRDTSKNQFFLSLNSVTTEDTATYFCVRGGDYDDGGFAYWGQGTLVTVSA VL: DIQMTQSPASLSASVGETVTITCRASGNIHNYLAWYQQKQGKSPQLLVYNAKTLADGVPSRFSGSGSETQYSLKINSLQPEDFGNYFCQHFWIIPYTFGGGTKLEIK
0.359

With those in mind, consider the next binder.
# input Identify measured EC50 corresponding to mAb019 (antibody, V domains shown, Mouse hybridoma antibody) VH: EVKLVESGGDLVQPGGSLKLSCAASGFTFSDYYMYWVRQTPEKRLEWVAYISYSGDSTYYPDTVKGRFTISRDNAKNTLFLQMSRLKSEDTAMYYCARHSPSFPYYFDYWGQGTALTVSS VL: EIVLTQSPAITAASLGQKVTITCSASSSVSYMHWYQQKSGTSPKPWIYEISKLASGVPARFSGSGSGTSYSLTISSMEAEDAAIYYCQLWNYPLITFGGGTNLEIK
# output 0.485
